experimental system: mGAT2 (Mus musculus, UniProt P31651)
Construct: expressed in transfected cells
Sequence (P31651 whole entry): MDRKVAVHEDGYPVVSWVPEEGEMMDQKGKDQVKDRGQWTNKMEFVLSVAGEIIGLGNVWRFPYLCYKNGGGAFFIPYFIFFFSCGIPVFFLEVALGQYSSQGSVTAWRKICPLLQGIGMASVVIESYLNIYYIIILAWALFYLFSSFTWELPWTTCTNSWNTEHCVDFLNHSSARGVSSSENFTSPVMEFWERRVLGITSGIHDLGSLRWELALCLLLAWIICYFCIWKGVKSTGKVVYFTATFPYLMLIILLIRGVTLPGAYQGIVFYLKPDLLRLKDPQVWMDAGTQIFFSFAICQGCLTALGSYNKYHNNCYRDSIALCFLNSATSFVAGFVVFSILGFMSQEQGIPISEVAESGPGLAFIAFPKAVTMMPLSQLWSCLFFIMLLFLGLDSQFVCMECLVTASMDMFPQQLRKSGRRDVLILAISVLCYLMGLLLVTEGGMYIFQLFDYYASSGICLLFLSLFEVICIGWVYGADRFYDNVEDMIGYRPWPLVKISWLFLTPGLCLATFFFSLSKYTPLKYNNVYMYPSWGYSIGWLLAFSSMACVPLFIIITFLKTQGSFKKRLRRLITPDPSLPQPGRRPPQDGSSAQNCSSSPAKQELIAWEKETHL
protocol summary: [3H]GABA uptake at mouse GABA transporters, HEK-293 cells
Type: cell-based
pIC50: −log10 of the molar value.
measurement type: pIC50

Bench note, mGAT2 (Mus musculus, UniProt P31651): entry N[C@H]1C[C@@H](C(=O)O)CC1=C(F)F , its pIC50 = < 3.00

----------
experimental system: hGAT-2 (Homo sapiens)
Construct: expressed in transfected cells; host or cells: tsA201 cells, transient (PolyFect)
Sequence (Q9NSD5 whole entry): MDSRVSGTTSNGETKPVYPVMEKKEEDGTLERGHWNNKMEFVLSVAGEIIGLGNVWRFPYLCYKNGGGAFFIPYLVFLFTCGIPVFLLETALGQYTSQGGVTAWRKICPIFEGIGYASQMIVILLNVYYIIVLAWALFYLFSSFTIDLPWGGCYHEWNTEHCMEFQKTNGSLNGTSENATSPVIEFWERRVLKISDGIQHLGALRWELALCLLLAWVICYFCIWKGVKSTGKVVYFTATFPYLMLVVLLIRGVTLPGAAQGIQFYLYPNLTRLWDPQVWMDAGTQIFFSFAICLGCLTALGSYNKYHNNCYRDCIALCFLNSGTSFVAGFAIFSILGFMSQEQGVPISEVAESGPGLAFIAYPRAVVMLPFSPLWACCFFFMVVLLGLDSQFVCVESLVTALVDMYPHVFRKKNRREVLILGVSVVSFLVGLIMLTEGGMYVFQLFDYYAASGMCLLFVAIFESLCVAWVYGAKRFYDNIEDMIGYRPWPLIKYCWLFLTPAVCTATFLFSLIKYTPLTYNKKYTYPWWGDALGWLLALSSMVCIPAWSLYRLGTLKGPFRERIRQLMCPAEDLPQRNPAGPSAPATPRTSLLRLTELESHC
protocol summary: [3H]GABA uptake at human GABA transporters, tsA201 cells
Format: cell-based
pIC50: −log10 of the molar value.
measurement type: pIC50

Bench note, hGAT-2 (Homo sapiens): entry N[C@H]1C[C@@H](C(=O)O)CC1=C(F)F , its pIC50 = < 3.00

----------
experimental system: GABAA receptor
experimental conditions: read-out: [3H]muscimol competition (GABAA receptor) IC50; 5 nM [3H]muscimol, 0 °C, 60 min
pIC50: −log10 of the molar value.
measurement type: pIC50

Bench note, GABAA receptor: entry N[C@H]1C[C@@H](C(=O)O)CC1=C(F)F [CPP-115] , its pIC50 = < 4.00

----------
experimental system: hGAT-1 (Homo sapiens, UniProt P30531)
Sequence (P30531 whole entry): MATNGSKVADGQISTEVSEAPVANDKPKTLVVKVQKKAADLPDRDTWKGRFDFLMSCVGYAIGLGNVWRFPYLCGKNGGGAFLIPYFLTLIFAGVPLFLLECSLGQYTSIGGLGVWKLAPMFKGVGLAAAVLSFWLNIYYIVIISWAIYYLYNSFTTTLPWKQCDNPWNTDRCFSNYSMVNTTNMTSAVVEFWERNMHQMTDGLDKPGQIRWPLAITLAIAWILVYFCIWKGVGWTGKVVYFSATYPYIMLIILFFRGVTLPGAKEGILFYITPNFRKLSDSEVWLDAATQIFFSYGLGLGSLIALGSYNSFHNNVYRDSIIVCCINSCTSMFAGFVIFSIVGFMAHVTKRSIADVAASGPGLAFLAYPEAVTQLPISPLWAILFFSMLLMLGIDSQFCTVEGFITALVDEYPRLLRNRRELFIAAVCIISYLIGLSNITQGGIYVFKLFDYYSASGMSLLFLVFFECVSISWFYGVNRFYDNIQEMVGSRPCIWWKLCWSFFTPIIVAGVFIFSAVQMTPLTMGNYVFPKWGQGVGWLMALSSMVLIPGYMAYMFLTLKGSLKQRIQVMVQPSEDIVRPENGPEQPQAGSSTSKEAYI
protocol summary: [3H]GABA uptake at human GABA transporters, tsA201 cells
measurement type: IC50

For reference, reported IC50 for N[C@H]1C[C@@H](C(=O)O)CC1=C(F)F stands at > 1 mM
